# Species: Rattus norvegicus
# test-details: Open TG-GATES - Regimen: Single
# Format: toxicity, organism-based, Sprague-Dawley
# Parameters: regimen Single, gender Male, age 6 weeks
# run-conditions: in vivo, po, 0 mg/kg, 24 h, tissue Plasma, route gavage, dose level Control
measurement-type: AST (IU/L)
Give bare numbers, in IU/L.

INSERT INTO assay_data (compound, measurement_type, readout_unit, value_observed) VALUES
  ('CCCc1cc(=O)[nH]c(=S)[nH]1', 'AST', 'IU/L', 70.2),
  ('CN/C(=N/CCSCc1nc[nH]c1C)NC#N', 'AST', 'IU/L', 64),
  ('Cc1nnc2n1-c1ccc(Cl)cc1C(c1ccccc1Cl)=NC2', 'AST', 'IU/L', 79.4),
  ('CNC(=C[N+](=O)[O-])NCCSCc1ccc(CN(C)C)o1', 'AST', 'IU/L', 62.6),
  ('NC1=NC(=O)C(c2ccccc2)O1 (stereo not drawn)', 'AST', 'IU/L', 79);

Fill in AST for each of the 3 compounds listed.
1. CN(C)CCC(c1ccc(Cl)cc1)c1ccccn1 (stereo not drawn)
2. CC(C)NNC(=O)c1ccncc1
3. Brc1ccccc1

[70.2, 76.8, 79.6]

###

# Species: Rattus norvegicus
# test-details: Open TG-GATES - Regimen: Daily Repeat
# Format: toxicity, organism-based, Sprague-Dawley
# Design: regimen Daily Repeat, gender Male, age 6 weeks
# run-conditions: in vivo, po, 300 mg/kg, […], tissue Blood, route gavage, dose level Middle, time 7 day
measurement-type: Ret (%)
One number for each entry, in %.

Previously resolved entries follow.
INSERT INTO measurements (molecular_string, value_observed) VALUES
  ('Cc1nnc2n1-c1ccc(Cl)cc1C(c1ccccc1Cl)=NC2', 7),
  ('CNC(=C[N+](=O)[O-])NCCSCc1ccc(CN(C)C)o1', 4.8),
  ('COC(=O)C1=C(C)NC(C)=C(C(=O)OC)C1c1ccccc1[N+](=O)[O-]', 6.2);

Read the next record carefully.
Find the recorded Ret belonging to `CCOc1ccc(NC(C)=O)cc1` and report it.
6.7

###

# Species: Rattus norvegicus
# test-details: Open TG-GATES - Regimen: Single
# Type: toxicity, organism-based, Sprague-Dawley
# Set-up: regimen Single, gender Male, age 6 weeks
# run-conditions: in vivo, po, 0 mg/kg, 9 h, tissue Plasma, route gavage, dose level Control
Please respond with 1 (yes) when measured LDH is strictly beneath 80 IU/L, and with 0 (no) in all other cases.

INSERT INTO results (compound, label_value) VALUES
  ('COC(=O)C1=C(C)NC(C)=C(C(=O)OC)C1c1ccccc1[N+](=O)[O-]', '1 (yes)');

Item CN(C)CCC(c1ccc(Cl)cc1)c1ccccn1 (configuration not stated) : LDH beneath 80 IU/L, strictly?
0 (no)

Item NC1=NC(=O)C(c2ccccc2)O1 (configuration not stated) : LDH beneath 80 IU/L, strictly?
1 (yes)

Item `CN/C(=N/CCSCc1nc[nH]c1C)NC#N` : LDH beneath 80 IU/L, strictly?
0 (no)

Item `CC(C)NNC(=O)c1ccncc1` : LDH beneath 80 IU/L, strictly?
0 (no)

Item CN1C(=O)CCS(=O)(=O)C1c1ccc(Cl)cc1 (configuration not stated) : LDH beneath 80 IU/L, strictly?
1 (yes)

###

# Organism: Rattus norvegicus
# test-details: Open TG-GATES - Regimen: Single
# Format: toxicity, organism-based, Sprague-Dawley
# Design: regimen Single, gender Male, age 6 weeks
# run-conditions: in vivo, po, 0 mg/kg, 3 h, tissue Plasma, route gavage, dose level Control
Hi there, I'd appreciate the recorded TP for every entry that follows.
Your reply should be a number followed by the unit it is expressed in.

INSERT INTO assay_data (molecule, value_observed) VALUES
  ('CCOc1ccc(NC(C)=O)cc1 [PHENACETIN]', '5.4 g/dL'),
  ('Nc1c2c(nc3ccccc13)CCCC2 [TACRINE]', '5.4 g/dL'),
  ('CS(=O)(=O)O.Cc1ccc(NC(=O)c2ccc(CN3CCN(C)CC3)cc2)cc1Nc1nccc(-c2cccnc2)n1 [IMATINIB MESYLATE]', '5.4 g/dL');

Fill in TP for each of the 2 molecules listed.
1. O=C(OC[C@H]1O[C@@H](OC(=O)c2cc(O)c(O)c(OC(=O)c3cc(O)c(O)c(O)c3)c2)[C@H](OC(=O)c2cc(O)c(O)c(OC(=O)c3cc(O)c(O)c(O)c3)c2)[C@@H](OC(=O)c2cc(O)c(O)c(OC(=O)c3cc(O)c(O)c(O)c3)c2)[C@@H]1OC(=O)c1cc(O)c(O)c(OC(=O)c2cc(O)c(O)c(O)c2)c1)c1cc(O)c(O)c(OC(=O)c2cc(O)c(O)c(O)c2)c1 [TANNIC ACID]
2. Cc1nnc2n1-c1ccc(Cl)cc1C(c1ccccc1Cl)=NC2 [TRIAZOLAM]

1. 5.4 g/dL
2. 5.2 g/dL

###

Hi there, I'd appreciate the recorded Ret for every entry that follows.
# Species: Rattus norvegicus
# test-details: Open TG-GATES - Regimen: Daily Repeat
# Assay type: toxicity, organism-based, Sprague-Dawley
# Parameters: regimen Daily Repeat, gender Male, age 6 weeks
# run-conditions: in vivo, po, 100 mg/kg, 72 h, tissue Blood, route gavage, dose level Low, time 3 day
Answers are plain numbers, in %.

Previously resolved entries follow.
INSERT INTO assay_data (molecular_string, measurement_type, readout_unit, value_observed) VALUES
  ('COC(=O)C1=C(C)NC(C)=C(C(=O)OC)C1c1ccccc1[N+](=O)[O-]', 'Ret', '%', 9.2),
  ('CN/C(=N/CCSCc1nc[nH]c1C)NC#N', 'Ret', '%', 6.9);

Find the recorded Ret belonging to `CNC(=C[N+](=O)[O-])NCCSCc1ccc(CN(C)C)o1` and report it.
5.2

###

Hi there, I'd appreciate the recorded Eos for every entry that follows.
# Species on record: Rattus norvegicus
# test-details: Open TG-GATES - Regimen: Single
# Type: toxicity, organism-based, Sprague-Dawley
# Design: regimen Single, gender Male, age 6 weeks
# run-conditions: in vivo, po, 0 mg/kg, 3 h, tissue Blood, route gavage, dose level Control
Give bare numbers, in %.

Previously resolved entries follow.
INSERT INTO assay_data (molecule, value_observed) VALUES
  ('O=C(OC[C@H]1O[C@@H](OC(=O)c2cc(O)c(O)c(OC(=O)c3cc(O)c(O)c(O)c3)c2)[C@H](OC(=O)c2cc(O)c(O)c(OC(=O)c3cc(O)c(O)c(O)c3)c2)[C@@H](OC(=O)c2cc(O)c(O)c(OC(=O)c3cc(O)c(O)c(O)c3)c2)[C@@H]1OC(=O)c1cc(O)c(O)c(OC(=O)c2cc(O)c(O)c(O)c2)c1)c1cc(O)c(O)c(OC(=O)c2cc(O)c(O)c(O)c2)c1', 0.6),
  ('CS(=O)(=O)O.Cc1ccc(NC(=O)c2ccc(CN3CCN(C)CC3)cc2)cc1Nc1nccc(-c2cccnc2)n1 [IMATINIB MESYLATE]', 0.6),
  ('Cc1nnc2n1-c1ccc(Cl)cc1C(c1ccccc1Cl)=NC2', 0.8);

Read the next record carefully.
Find the recorded Eos belonging to `CCOc1ccc(NC(C)=O)cc1` and report it.
0.6

###

# Species: Rattus norvegicus
# test-details: Open TG-GATES - Regimen: Daily Repeat
# Type: toxicity, organism-based, Sprague-Dawley
# Set-up: regimen Daily Repeat, gender Male, age 6 weeks
# run-conditions: in vivo, po, 0 mg/kg, 72 h, tissue Blood, route gavage, dose level Control, time 3 day
Hi there, I'd appreciate the recorded Eos for every entry that follows.
Answers are plain numbers, in %.

INSERT INTO results (compound, readout_unit, value_observed) VALUES
  ('Brc1ccccc1 [BROMOBENZENE]', '%', 1),
  ('O=C(OC[C@H]1O[C@@H](OC(=O)c2cc(O)c(O)c(OC(=O)c3cc(O)c(O)c(O)c3)c2)[C@H](OC(=O)c2cc(O)c(O)c(OC(=O)c3cc(O)c(O)c(O)c3)c2)[C@@H](OC(=O)c2cc(O)c(O)c(OC(=O)c3cc(O)c(O)c(O)c3)c2)[C@@H]1OC(=O)c1cc(O)c(O)c(OC(=O)c2cc(O)c(O)c(O)c2)c1)c1cc(O)c(O)c(OC(=O)c2cc(O)c(O)c(O)c2)c1 [TANNIC ACID]', '%', 1),
  ('CCOc1ccc(NC(C)=O)cc1 [PHENACETIN]', '%', 1),
  ('CCCc1cc(=O)[nH]c(=S)[nH]1 [PROPYLTHIOURACIL]', '%', 0.8),
  ('CNC(=C[N+](=O)[O-])NCCSCc1ccc(CN(C)C)o1 [RANITIDINE]', '%', 1);

Fill in Eos for each of the 5 compounds listed.
1. Nc1c2c(nc3ccccc13)CCCC2 [TACRINE]
2. Cc1nnc2n1-c1ccc(Cl)cc1C(c1ccccc1Cl)=NC2 [TRIAZOLAM]
3. CN1C(=O)CCS(=O)(=O)C1c1ccc(Cl)cc1 (stereo not given) [CHLORMEZANONE]
4. COC(=O)C1=C(C)NC(C)=C(C(=O)OC)C1c1ccccc1[N+](=O)[O-] [NIFEDIPINE]
5. NC1=NC(=O)C(c2ccccc2)O1 (stereo not given) [PEMOLINE]

1: 1.2; 2: 1.2; 3: 1; 4: 1; 5: 1
